Test system: rat α-glucosidase
Procedure Text: Glycosidase inhibitory activity, enzymes from rat small intestines
Format: biochemical
Measurement Parameters: rat small intestinal enzymes, at 100 μg mL^−1
Parameter: inhibitory activity against maltase, sucrase and isomaltase (in words)

{"columns": ["Compound", "Test Result"],
 "data": [
  ["[O-][C@@H](CO)[C@H](O)C[S@+]1C[C@@H](O)[C@H](O)[C@H]1CO [Neosalacinol (4), neosalacinol, reference compound]", "effectively inhibited"],
  ["O=S(=O)([O-])O[C@@H](CO)[C@H](O)C[S@+]1C[C@@H](O)[C@H](O)[C@H]1CO [Salacinol (1), salacinol, reference compound]", "effectively inhibited"]
]}
